# System: HCT116 WT cells
# RUN DESCRIPTION: HCT116 proliferation assay, WT cells (CellTiter-Glo, 6 days)
# Assay type: cell-based
# CONDITIONS: Homo sapiens, HCT-116, 144 h, read-out: Prolif_HCT116-WT IC50
# Method: HCT116 MTAP null and WT cells were seeded in 96-well tissue culture plates in RPMI 1640 media + 10% fetal bovine serum. Plates were incubated overnight at 37° C. and 5% CO2. […] Effects on cell viability were measured with the CellTiter-Glo® Luminescent Cell Viability Assay (Promega) per manufacturer’s recommendation. Assay plates were read on an EnVision™ Multilabel Reader using the Ultra-Sensitive luminescence module.
pIC50: −log10 of the molar value.
Reported pIC50 by item:
REPORTED PROPERTY: pIC50

INSERT INTO results (molecule, value_reported) VALUES
  ('C[C@H](c1ncccn1)N(Cc1ccc(C2=CCOCC2)nn1)C(=O)c1ccc2nc(N)c(Cl)cc2c1', '< 5.00'),
  ('Cc1cc2cc(C(=O)N(Cc3ccc(C(F)(F)F)cn3)Cc3ncccn3)ccc2nc1N', '< 5.00'),
  ('Cc1cc2cc(C(=O)N(Cc3ccc(C(F)(F)F)cn3)C3COCc4ccccc43)ccc2nc1N (stereo not shown)', '< 6.00'),
  ('Cc1cc2cc(C(=O)N(Cc3ccc(C(F)(F)F)cn3)Cc3cc4c([nH]c3=O)CCC4)ccc2nc1N', '< 6.00');
